Target: Interstitial collagenase (Homo sapiens)
Sequence (P03956 whole entry): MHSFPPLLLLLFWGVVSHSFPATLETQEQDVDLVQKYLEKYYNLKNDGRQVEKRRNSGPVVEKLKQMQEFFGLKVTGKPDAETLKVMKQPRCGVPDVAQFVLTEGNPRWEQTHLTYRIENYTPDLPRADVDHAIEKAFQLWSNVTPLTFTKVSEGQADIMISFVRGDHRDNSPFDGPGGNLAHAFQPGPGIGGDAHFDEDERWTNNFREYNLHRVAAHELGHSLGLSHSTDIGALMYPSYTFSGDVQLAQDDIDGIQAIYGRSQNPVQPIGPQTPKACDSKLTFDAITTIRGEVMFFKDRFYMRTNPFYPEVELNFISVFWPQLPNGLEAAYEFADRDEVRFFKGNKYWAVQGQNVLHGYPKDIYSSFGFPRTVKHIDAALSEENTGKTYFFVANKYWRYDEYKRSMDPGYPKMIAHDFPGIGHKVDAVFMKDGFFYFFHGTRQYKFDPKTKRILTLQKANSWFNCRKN
METRIC NAME: IC50
Please answer using a numeric value trailed by its unit.

IC50 for O=C(O[C@@H]1Cc2c(O)cc(O)cc2O[C@@H]1c1cc(O)c(O)c(O)c1)c1cc(O)c(O)c(O)c1 [EPIGALOCATECHIN GALLATE] ?
7.9 µM
